Target: T1, human GIP receptor (human) (UniProt P48546)
T1 sequence (looked up): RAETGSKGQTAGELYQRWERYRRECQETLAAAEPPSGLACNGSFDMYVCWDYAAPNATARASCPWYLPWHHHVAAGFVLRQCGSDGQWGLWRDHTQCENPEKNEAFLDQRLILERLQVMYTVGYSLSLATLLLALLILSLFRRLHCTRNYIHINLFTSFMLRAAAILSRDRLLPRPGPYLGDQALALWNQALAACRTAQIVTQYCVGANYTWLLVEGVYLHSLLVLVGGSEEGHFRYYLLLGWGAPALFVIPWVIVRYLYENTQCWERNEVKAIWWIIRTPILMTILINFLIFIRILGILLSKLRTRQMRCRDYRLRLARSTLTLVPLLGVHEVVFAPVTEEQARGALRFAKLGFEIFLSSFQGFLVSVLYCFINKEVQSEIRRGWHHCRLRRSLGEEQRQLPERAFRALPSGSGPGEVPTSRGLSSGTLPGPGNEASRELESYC
Assay: cell-based or functional assay
experimental endpoint: log10 cAMP Rel EC50, nM (1% HSA) (log10 of the value in nM)
Hey, these are logged values: log10 of cAMP Rel EC50, nM (1% HSA), nM being the unit before logging.

Noted for YXQGTFTSDFSQXLDKKAQXAFIEYLLEXGPSSGAPPPSGS (synthetic construct; SITE 2: note = 2-Aminoisobutyric Acid; SITE 13: note = alpha-methyl-leucine; SITE 17: note = Lysine is chemically modified through conjugation of the epsilon-amino group of the Lysine side chain with (gamma-Glu)2-CO-(CH2)16-CO2H; SITE 20: note = 2-Aminoisobutyric Acid; SITE 29:) [Example 784] : its log10 cAMP Rel EC50, nM (1% HSA) reads 1.07

Noted for YXQGTFTSDXSXXLDKKAQXAFIEYLIAGGPSSGAPPPSGSE (non-natural residues; lysine acylated with C18 diacid; C-terminal amide; synthetic construct; SITE 2: note = 2-Aminoisobutyric Acid; SITE 10: note = 3-(4-Pyridyl)-L-alanine; SITE 12: note = L-ornithine; SITE 13: note = alpha-methyl-leucine; SITE 17: note = Lysine is chemically modified through conjugation of the epsilon-amino group of the Lysine side chain with (gamma-Gl)) [Example 1009] : its log10 cAMP Rel EC50, nM (1% HSA) reads 0.99

Noted for YXQGTXTSDYSIXLDKKAAXAFIEYLIETGPSSGAPPPSEG (synthetic construct; SITE 2: note = 2-Aminoisobutyric Acid; SITE 6: note = alpha-methyl-2-fluoro-L-phenylalanine; SITE 13: note = alpha-methyl-leucine; SITE 17: note = Lysine is chemically modified through conjugation of the epsilon-amino group of the Lysine side chain with (2-[2-(2-Amino-ethoxy)-et)) [Example 383] : its log10 cAMP Rel EC50, nM (1% HSA) reads 1.51

Noted for YXQGTFTSDFSXXLDKKAQXAFIEWLLEGGTSSGAPPPSGS (synthetic construct; SITE 2: note = 2-Aminoisobutyric Acid; SITE 12: note = L-ornithine; SITE 13: note = alpha-methyl-leucine; SITE 17: note = Lysine is chemically modified through conjugation of the epsilon-amino group of the Lysine side chain with (2-[2-(2-Amino-ethoxy)-ethoxy]-acetyl)-(gamma-Glu)) [Example 176] : its log10 cAMP Rel EC50, nM (1% HSA) reads 1.61

Noted for YXQGTFTSDXSQXLDKKAQXAFIEYLIEXGESSGAPPPSGE (acylated; synthetic construct; SITE 2: note = 2-Aminoisobutyric Acid; SITE 10: note = 3-(4-Pyridyl)-L-alanine; SITE 13: note = alpha-methyl-leucine; SITE 17: note = Lysine is chemically modified through conjugation of the epsilon-amino group of the Lysine side chain with (2-[2-(2-Amino-ethoxy)-ethoxy]-acetyl)) [Example 227] : its log10 cAMP Rel EC50, nM (1% HSA) reads 1.60

Noted for YXQGTFTSDXSRXLDKKAQXAFIEYLIAGGESSGAPPPSGSEE (C-terminal amide; lysine acylated with (γ-Glu)2-C18 diacid; synthetic construct; SITE 2: note = 2-Aminoisobutyric Acid; SITE 10: note = 3-(4-Pyridyl)-L-alanine; SITE 13: note = alpha-methyl-leucine; SITE 17: note = Lysine is chemically modified through conjugation of the epsilon-amino group of the Lysine side chain with (gamma-Glu)2-CO-(CH2)16-CO2H; SITE 20:) [Example 965] : its log10 cAMP Rel EC50, nM (1% HSA) reads 1.37

Noted for YXQGTFTSDXSQXLDKKAQXAFIEYLIAGGPSSGAPPPSGSEE (Aib, 4Pal, Me4Pal, αMeL; lipidated Lys; C-terminal amide; synthetic construct; SITE 2: note = 2-Aminoisobutyric Acid; SITE 10: note = 3-(4-Pyridyl)-L-alanine; SITE 13: note = alpha-methyl-leucine; SITE 17: note = Lysine is chemically modified through conjugation of the epsilon-amino group of the Lysine side chain with (gamma-Glu)2-CO-(CH2)16-CO2H; SITE 20:) [Example 960] : its log10 cAMP Rel EC50, nM (1% HSA) reads 1.15

Noted for YXQGTFTSDFSXXLDKKAQXAFIEWLLEGGSSSGAPPPSGE (synthetic construct; SITE 2: note = 2-Aminoisobutyric Acid; SITE 12: note = L-ornithine; SITE 13: note = alpha-methyl-leucine; SITE 17: note = Lysine is chemically modified through conjugation of the epsilon-amino group of the Lysine side chain with (2-[2-(2-Amino-ethoxy)-ethoxy]-acetyl)-(gamma-Glu)) [Example 172] : its log10 cAMP Rel EC50, nM (1% HSA) reads 1.47

Noted for YXQGTFTSDFSXXLDKKAQXAFIEYLLEXGHSSGAPPPSGE (synthetic construct; SITE 2: note = 2-Aminoisobutyric Acid; SITE 12: note = L-ornithine; SITE 13: note = alpha-methyl-leucine; SITE 17: note = Lysine is chemically modified through conjugation of the epsilon-amino group of the Lysine side chain with (2-[2-(2-Amino-ethoxy)-ethoxy]-acetyl)2-(gamma-Glu)) [Example 186] : its log10 cAMP Rel EC50, nM (1% HSA) reads 1.26

Noted for YXQGTXTSDYSIXLDKKAQXAFIEYLEEGGPSSGAPEPS (synthetic construct; SITE 2: note = 2-Aminoisobutyric Acid; SITE 6: note = alpha-methyl-2-fluoro-L-phenylalanine; SITE 13: note = alpha-methyl-leucine; SITE 17: note = Lysine is chemically modified through conjugation of the epsilon-amino group of the Lysine side chain with (2-[2-(2-Amino-ethoxy)-et)) [Example 423] : its log10 cAMP Rel EC50, nM (1% HSA) reads 0.49
